Would you kindly list CC50 at 48 h for each of these molecules?
- assay_notes: in vitro
- Assay type: cell-based
- assay_setup: African green monkey

Dear colleague, could you send me CC50 at 48 h for each of the items below? Thanks.
1. CC1(C)C2CCC1(C)C(O)C2 (stereo not drawn)
2. CC12CCC(CC1)C(C)(C)O2
3. Cc1ncc([N+](=O)[O-])n1CCO [Metronidazole, reference compound]

## Output
1: > 100 µg/mL; 2: > 100 µg/mL; 3: > 100 µg/mL

---

- assay_notes: in vitro
- Format: cell-based
- assay_setup: pure compounds; 48 h exposure; interval in parentheses; read-out: Vero cells (CC50), concentration needed to produce 50% Vero cell mortality
assay_metric: CC50 at 48 h

Measured CC50 at 48 h of CC1=CCC(C(C)C)=CC1 [γ-terpinene] : > 100 µg/mL

---

- assay_notes: in vitro
- Format: cell-based
- assay_setup: pure compounds; 48 h exposure; interval in parentheses; read-out: Vero cells (CC50), concentration needed to produce 50% Vero cell mortality
- Experimental: African green monkey kidney cells (Vero cells) were grown in Dulbecco's modified Eagle's minimal essential medium (DMEM, Avantor, Llinars del Vallès, Barcelona) supplemented with 10% fetal calf serum (Sigma, Madrid, Spain) and 1% penicillin/streptomycin (Fisher Scientific, Madrid, Spain) at 37°C under a humidified atmosphere of 5% CO2/95% air. […]
assay_metric: CC50

Worked set:
INSERT INTO results (compound, recorded_measurement) VALUES
  ('C=CC(C)(O)CCC=C(C)C (centres unmarked) [Linalool]', '> 100 µg/mL'),
  ('CC1=CCC(O)(C(C)C)CC1 (centres unmarked) [4-terpinenol]', '> 100 µg/mL'),
  ('Cc1ccc(C(C)C)cc1 [p-cymene]', '> 100 µg/mL'),
  ('C=C1CC/C=C(\C)CC[C@@H]2[C@@H]1CC2(C)C [β-caryophyllene]', '60.8 µg/mL'),
  ('CC1=CC[C@@H](C(C)(C)O)CC1 [α-terpineol]', '> 100 µg/mL');

Dear colleague, could you send me CC50 for each of the items below? Thanks.
1. C=C1CCC2CC1C2(C)C (stereo not drawn) [β-pinene]
2. C=C1C2CCC(C2)C1(C)C (centres unmarked) [Camphene]
3. Cc1ccc(C(C)C)cc1O [Carvacrol]

## Output
88.2 µg/mL
74.8 µg/mL
> 100 µg/mL

---

- assay_notes: in vitro
- Assay type: cell-based
assay_metric: CC50

Measured CC50 of C=CC(C)(CCC=C(C)C)OC(C)=O (stereo not shown) [Linalyl acetate] : > 100 µg/mL

---

- assay_notes: in vitro
- Assay type: cell-based
- assay_setup: African green monkey
assay_metric: CC50 at 48 h

INSERT INTO assay_data (compound, recorded_measurement) VALUES
  ('CC12CCC(CC1=O)C2(C)C (stereo not drawn) [Camphor]', '> 100 µg/mL'),
  ('Cc1ccc(C(C)C)c(O)c1 [Thymol]', '> 100 µg/mL');

// next item, CC50 at 48 h requested
Measured CC50 at 48 h of CC1=CCC2CC1C2(C)C (stereo not drawn) [α-pinene] : 88.9 µg/mL

Ref: paper PMC9500544
